Source of measurements: patent US6870154B1

Target: chymotrypsin (a mixture of the α form and δ′ forms) (Bos taurus, UniProt P00766)
pKd: −log10 of the molar value.
measure: pKd

* CC(=O)Oc1ccc([N+](=O)[O-])cc1 [p-NPA, para-nitrophenyl acetate] | 2.80

---

Molecular target: UniProt P00766
measure: Kd (µM)

* CC(=O)Oc1ccc([N+](=O)[O-])cc1 [p-NPA, para-nitrophenyl acetate] | 1700
